- system_tested: hMC5-R (human), P33032
- Sequence (P33032 whole entry): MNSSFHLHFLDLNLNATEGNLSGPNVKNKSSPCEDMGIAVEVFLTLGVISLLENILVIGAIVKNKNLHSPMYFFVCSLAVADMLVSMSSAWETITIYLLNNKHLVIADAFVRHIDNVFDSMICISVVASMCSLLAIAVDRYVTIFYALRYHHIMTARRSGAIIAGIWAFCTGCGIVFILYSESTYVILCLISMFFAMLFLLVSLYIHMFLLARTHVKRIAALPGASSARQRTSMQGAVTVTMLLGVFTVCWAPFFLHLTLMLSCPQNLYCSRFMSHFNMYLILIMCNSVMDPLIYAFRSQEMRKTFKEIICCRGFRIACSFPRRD
- assay_overview: competition with [125I]-NDP-α-MSH, CHO-K1 membranes
Bridge positions count the residues as written; N and C are the ends. Square brackets hold non-standard residues; d marks the D form.
attribute_measured: Ki

Reported Ki of Ac-RC[dA]H[dF]RWC-NH2 (disulfide 2-8) [Ac-Arg-c(Cys-D-Ala-His-D-Phe-Arg-Trp-Cys)-NH2] : 430 nM
